- Read-out: Vascular endothelial growth factor receptor 2 (Homo sapiens) (UniProt P35968)
- TEST: BSK_4H_VEGFRII: BioMAP Diversity Plus: 4H Assay for Vascular endothelial growth factor receptor 2 (VEGFR2) Biomarker Activity (AID 2283031)
- RUN CONDITIONS: primary human endothelial cells (HUVEC); actives raise or lower the signal
Activity calls are given as the source filed them. How the source made its calls: active means hit-call score of the fitted dose curve at least 0.9, where 1 is the maximum; inactive means score below 0.9.
The reply should be one of these categories: yes (1) for active, no (0) for inactive

These solved cases illustrate the format of a correct answer.
// param item: CC(C)(c1cc(Br)c(O)c(Br)c1)c1cc(Br)c(O)c(Br)c1 ; yields the recorded call
no (0)

// param item: CCCCCCCCN(C)CCCCCCCC ; yields the recorded call
no (0)

// param item: Cc1c2ccccc2c(C)c2c1ccc1ccccc12 ; yields the recorded call
no (0)

With those in mind, consider the next compound.
// param item: CC(C)(C)c1cc(/C=C2\SC(N)=NC2=O)cc(C(C)(C)C)c1O ; yields the recorded call
yes (1)
